SUBJECT_OF_TEST: EtCRK2/XlRINGO (Eimeria tenella)
Sequence (Q6R8F0 entry or part of it): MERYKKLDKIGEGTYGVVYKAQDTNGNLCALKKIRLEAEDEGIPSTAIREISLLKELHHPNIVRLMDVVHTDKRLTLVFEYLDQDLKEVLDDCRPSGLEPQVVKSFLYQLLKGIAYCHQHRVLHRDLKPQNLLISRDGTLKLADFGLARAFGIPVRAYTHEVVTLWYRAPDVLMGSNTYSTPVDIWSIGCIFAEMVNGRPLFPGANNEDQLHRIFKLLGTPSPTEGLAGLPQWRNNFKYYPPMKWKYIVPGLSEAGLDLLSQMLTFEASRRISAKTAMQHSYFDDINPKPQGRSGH
ASSAY_EXPLANATION: biochemical
Listed next: entries and their corresponding IC50.

{"columns": ["MOLECULE", "IC50 [nM]"],
 "data": [
  ["CC(C)C(CO)Nc1nc(Nc2cccc(Cl)c2)c2ncn(C(C)C)c2n1 (centres unmarked)", 800],
  ["CN[C@@H]1C[C@H]2O[C@@](C)([C@@H]1OC)n1c3ccccc3c3c4c(c5c6ccccc6n2c5c31)C(=O)NC4", 90]
]}
